Measured values drawn from patent CN108290841A for this set.

- Protocol: Blood concentration after oral administration to mice (Example 17)
- Format: in vivo
- Run conditions: in vivo; mouse (male ICR, 6 weeks), 30 mg/kg oral, 0.5 h after administration
Observed property: concentration at 0.5 h

Ask: Look up and report measured concentration at 0.5 h for this entry: Cc1cc2c(cc1-c1cc3cc(C(=O)O)c(=O)oc3cc1O)C(C)(C)CCC2(C)C [化合物10]
Reply: ~3000 nM
